Hi there, I'd appreciate the recorded IC50 for every entry that follows.
target desc: Chitinase (Trichoderma)
experiment: Compound was evaluated for inhibitory activity against Trichoderma Chitinase
Numbers only, in µM.

As a guide, the following entries are already answered.
CC(=O)NC(/C=N/NC(=O)CCCCCNC(=O)CCCCC1SC[C@@H]2NC(=O)N[C@H]12)C(OC(/C=N/NC(=O)CCCCCNC(=O)CCCCC1SC[C@@H]2NC(=O)N[C@H]12)CO)OC1C(CO)OC(OC2C(O)C3N=C(N(C)C)OC3C2CO)C(NC(C)=O)C1O (some centres undefined) :: 0.00753
CC(=O)NC(/C=N/NC(=O)CCCCCNC(=O)CCCCC1SC[C@H]2NC(=O)N[C@@H]12)C(OC(CO)CO)OC1C(CO)OC(OC2C(O)C3N=C(N(C)C)OC3C2CO)C(NC(C)=O)C1O (some centres undefined) :: 0.041
CC(=O)NC(/C=N/NC(=O)CCCCCNC(=O)CCCCC1SC[C@H]2NC(=O)N[C@@H]12)C(OC(C=O)CO)OC1C(CO)OC(OC2C(O)C3N=C(N(C)C)OC3C2CO)C(NC(C)=O)C1O (some centres undefined) :: 0.0411

Next item in the queue.
Requested field: IC50. Item: CC(=O)NC(CO)C(OC(CO)CO)OC1C(CO)OC(OC2C(O)C3N=C(N(C)C)OC3C2CO)C(NC(C)=O)C1O (centres undefined)
0.08
